target: rat A2A AR (Rattus norvegicus, UniProt P30543); construct: A2A ARs of rat brain striatal membrane preparations; from tissue; host or cells: rat brain striatum membranes; test: Radioligand binding assay at rat A2A AR (rat brain striatum) vs. [^3H]MSX-2; details: rat (r); rat brain striatum; n = 3; read-out: Ki ± SEM, A2A vs. [^3H]MSX-2
Sequence (P30543 whole entry): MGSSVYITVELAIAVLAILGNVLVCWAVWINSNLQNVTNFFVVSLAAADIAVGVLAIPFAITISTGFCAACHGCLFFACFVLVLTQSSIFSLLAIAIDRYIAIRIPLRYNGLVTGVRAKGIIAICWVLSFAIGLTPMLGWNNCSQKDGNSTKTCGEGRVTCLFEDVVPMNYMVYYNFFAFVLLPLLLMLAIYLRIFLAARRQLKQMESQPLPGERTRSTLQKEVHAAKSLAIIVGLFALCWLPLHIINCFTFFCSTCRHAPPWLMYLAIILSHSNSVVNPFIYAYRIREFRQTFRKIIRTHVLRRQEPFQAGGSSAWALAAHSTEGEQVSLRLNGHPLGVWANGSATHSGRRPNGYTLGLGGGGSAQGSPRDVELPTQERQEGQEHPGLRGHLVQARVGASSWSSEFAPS
pKi: −log10 of the molar value.
Recorded pKi values for a group of molecules are listed next.

- MOLECULE: "CCn1c(=O)c2c(nc3n2CCN(Cc2ccccc2C(F)(F)F)C3)n(C)c1=O [Compound 14d]"
  pKi: "< 6.00"
- MOLECULE: "CCn1c(=O)c2c(nc3n2CCN(Cc2cc(C(F)(F)F)cc(C(F)(F)F)c2)C3)n(CC)c1=O [Compound 15q]"
  pKi: "< 6.00"
- MOLECULE: "CCn1c(=O)c2c(nc3n2CCN(Cc2ccc(F)c(Br)c2)C3)n(CC)c1=O [Compound 15k]"
  pKi: "< 6.00"

* * *

Recorded pIC50 values for a group of compounds are listed next.
Molecular target: recombinant human MAO-B (Homo sapiens, UniProt P27338)
Construct: purchased Sigma-Aldrich M7441; host or cells: baculovirus-infected insect cells
Sequence (P27338 whole entry): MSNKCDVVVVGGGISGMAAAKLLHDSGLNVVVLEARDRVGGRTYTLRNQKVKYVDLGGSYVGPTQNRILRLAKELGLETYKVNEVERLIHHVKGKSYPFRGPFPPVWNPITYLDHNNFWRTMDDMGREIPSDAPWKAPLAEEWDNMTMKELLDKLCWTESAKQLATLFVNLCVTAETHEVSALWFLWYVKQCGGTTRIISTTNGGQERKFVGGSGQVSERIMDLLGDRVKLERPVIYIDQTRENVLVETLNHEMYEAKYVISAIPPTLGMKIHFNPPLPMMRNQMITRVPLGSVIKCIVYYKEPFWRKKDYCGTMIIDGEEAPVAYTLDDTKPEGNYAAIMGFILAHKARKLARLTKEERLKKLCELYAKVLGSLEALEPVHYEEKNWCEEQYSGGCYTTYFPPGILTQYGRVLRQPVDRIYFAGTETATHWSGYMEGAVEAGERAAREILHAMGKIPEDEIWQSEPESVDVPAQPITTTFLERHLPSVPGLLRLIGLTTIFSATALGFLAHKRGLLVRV
Assay: Monoamine oxidase assay (Amplex Red), MAO-B
Format: biochemical
Settings: n = 3; read-out: IC50 ± SEM, Human MAO-B
Procedure: The determination of MAO-A and MAO-B inhibition was performed using commercially available recombinant human MAO-A and MAO-B enzymes expressed in baculovirus-infected insects sells (Sigma-Aldrich, M7316 and M7441) applying the commercially available Amplex® Red monoamine oxidase assay kit (Invitrogen A12214). The assays were performed as previously described. The determination of rat MAO-B inhibition was performed using mitochondrial-enriched fractions from male Sprague Dawley rat livers. […]
pIC50: −log10 of the molar value.

- COMPOUND: "CCn1c(=O)c2c(nc3n2CCN(Cc2cc(F)cc(Cl)c2)C3)n(C)c1=O [Compound 14n]"
  CENSOR_SYMBOL: "="
  pIC50: 5.43
- COMPOUND: "CCn1c(=O)c2c(nc3n2CCN(Cc2cc(C(F)(F)F)ccc2Cl)C3)n(C)c1=O [Compound 14m]"
  CENSOR_SYMBOL: "="
  pIC50: 5.84
- COMPOUND: "CCn1c(=O)c2c(nc3n2CCN(Cc2cccc(C(F)(F)F)c2)C3)n(CC)c1=O [Compound 15g]"
  CENSOR_SYMBOL: "<"
  pIC50: 5.00
- COMPOUND: "Cn1c(=O)[nH]c(=O)c2c1nc1n2CCN(Cc2ccccc2Br)C1 [Compound 13a]"
  CENSOR_SYMBOL: "="
  pIC50: 5.34
- COMPOUND: "C#CCn1c(=O)c2c(nc3n2CCN(Cc2cccc(OC)c2)C3)n(CC)c1=O [Compound 20g]"
  CENSOR_SYMBOL: "<"
  pIC50: 5.00
- COMPOUND: "C#CCn1c(=O)c2c(nc3n2CCN(Cc2ccccc2OC)C3)n(CC)c1=O [Compound 20f]"
  CENSOR_SYMBOL: "<"
  pIC50: 5.00
- COMPOUND: "C#CCn1c(=O)c2c(nc3n2CCN(c2ccc(F)cc2)C3)n(CC)c1=O [Compound 20b]"
  CENSOR_SYMBOL: "<"
  pIC50: 5.00

Values from paper PMC6028563
